Reference source for all entries: the supplement of paper PMC10126150

# Test system: ATP;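 note: ATP exposure 15 min at 22 °C before imaging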
# run-description: switch fluorescence ratio, 500 uM ATP over buffer (Cy3 cluster intensity, sum of 5 cycles each) (fold (ratio)); higher = stronger signal-on switching upon ATP binding; sequences stand for … in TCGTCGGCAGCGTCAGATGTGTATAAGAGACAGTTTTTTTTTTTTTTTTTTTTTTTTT…TC
# assay-conditions: aptamer strand: ATP DNA aptamer (quencher-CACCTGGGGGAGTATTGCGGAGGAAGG + anchor), 100 nM annealed; ATP concentration: 500 uM
Provide the recorded switch fluorescence ratio for the entries that follow.
Please state the value as a number alone, without comment.

IN: Given CTTGAAAGGG , report its switch fluorescence ratio on ATP.
OUT: 0.997

IN: Given GCGTGCGGGA , report its switch fluorescence ratio on ATP.
OUT: 1.02

IN: Given GGCGAAAGGG , report its switch fluorescence ratio on ATP.
OUT: 1.02

IN: Given GAGACCCTAT , report its switch fluorescence ratio on ATP.
OUT: 1.03

IN: Given GGTGGGGGG , report its switch fluorescence ratio on ATP.
OUT: 0.977

IN: Given GGTGGGGGGC , report its switch fluorescence ratio on ATP.
OUT: 0.978

IN: Given TTTCCCTGGT , report its switch fluorescence ratio on ATP.
OUT: 1.12

IN: Given TATTTTCTTT , report its switch fluorescence ratio on ATP.
OUT: 0.982

IN: Given TGAGGGGCGC , report its switch fluorescence ratio on ATP.
OUT: 0.988

IN: Given GATATTTGGT , report its switch fluorescence ratio on ATP.
OUT: 0.989

IN: Given CATGGCAACC , report its switch fluorescence ratio on ATP.
OUT: 1.16

IN: Given AAATTTATTA , report its switch fluorescence ratio on ATP.
OUT: 1.03

IN: Given GTCGTGTGGT , report its switch fluorescence ratio on ATP.
OUT: 0.99

IN: Given TGGTAAACGT , report its switch fluorescence ratio on ATP.
OUT: 1.05

IN: Given ATGGACTATG , report its switch fluorescence ratio on ATP.
OUT: 1.02

IN: Given GGTGTAAAAG , report its switch fluorescence ratio on ATP.
OUT: 1.01

IN: Given TATTGTGTAA , report its switch fluorescence ratio on ATP.
OUT: 1

IN: Given TTTAGAACTT , report its switch fluorescence ratio on ATP.
OUT: 1.01

IN: Given GATGTCTAGT , report its switch fluorescence ratio on ATP.
OUT: 0.983

IN: Given TATTTGTGCT , report its switch fluorescence ratio on ATP.
OUT: 0.982

IN: Given TATAAAGGGT , report its switch fluorescence ratio on ATP.
OUT: 1.02

###

Provide the recorded switch fluorescence ratio for the entries that follow.
# Tested on: ATP;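 note: ATP exposure 15 min at 22 °C before imaging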
# run-description: switch fluorescence ratio, 500 uM ATP over buffer (Cy3 cluster intensity, sum of 5 cycles each) (fold (ratio)); higher = stronger signal-on switching upon ATP binding; sequences stand for … in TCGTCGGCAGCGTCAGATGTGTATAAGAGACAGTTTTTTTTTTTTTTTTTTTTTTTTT…TC
# assay-conditions: aptamer strand: ATP DNA aptamer (quencher-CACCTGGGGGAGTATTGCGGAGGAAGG + anchor), 100 nM annealed; ATP concentration: 500 uM
Please state the value as a number alone, without comment.

IN: Return the recorded switch fluorescence ratio value; entry: TAGATAGAGG
OUT: 0.961

IN: Return the recorded switch fluorescence ratio value; entry: TAGTATGTTT
OUT: 1

IN: Return the recorded switch fluorescence ratio value; entry: CGCCTAAGTT
OUT: 1

IN: Return the recorded switch fluorescence ratio value; entry: CGCAAAAGCA
OUT: 1.2

IN: Return the recorded switch fluorescence ratio value; entry: TTTTTTTCGT
OUT: 1.07

IN: Return the recorded switch fluorescence ratio value; entry: TGTTGGGAGA
OUT: 1

IN: Return the recorded switch fluorescence ratio value; entry: CGGAGGAGC
OUT: 1.02

IN: Return the recorded switch fluorescence ratio value; entry: TCCGGGGCAA
OUT: 3.73

IN: Return the recorded switch fluorescence ratio value; entry: AACCCTTTGC
OUT: 1.04

IN: Return the recorded switch fluorescence ratio value; entry: AAGGGGTGCA
OUT: 0.968

IN: Return the recorded switch fluorescence ratio value; entry: TTTGGTCTTT
OUT: 1

IN: Return the recorded switch fluorescence ratio value; entry: GATTTAGCTA
OUT: 1.01

IN: Return the recorded switch fluorescence ratio value; entry: GAAGTTTGTT
OUT: 0.98

IN: Return the recorded switch fluorescence ratio value; entry: CGCTGCTAAT
OUT: 1.58

IN: Return the recorded switch fluorescence ratio value; entry: CAGTTATGGC
OUT: 0.999

###

# Test system: ATP;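 note: ATP exposure 15 min at 22 °C before imaging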
# run-description: switch fluorescence ratio, 500 uM ATP over buffer (Cy3 cluster intensity, sum of 5 cycles each) (fold (ratio)); higher = stronger signal-on switching upon ATP binding; sequences stand for … in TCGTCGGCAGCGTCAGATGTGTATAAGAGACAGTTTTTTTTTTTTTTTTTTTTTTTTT…TC
# assay-conditions: aptamer strand: ATP DNA aptamer (quencher-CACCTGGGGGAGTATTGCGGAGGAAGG + anchor), 100 nM annealed; ATP concentration: 500 uM
Provide the recorded switch fluorescence ratio for the entries that follow.
Please state the value as a number alone, without comment.

IN: Given CCTTTGGGCT , report its switch fluorescence ratio on ATP.
OUT: 0.989

IN: Given CGTACGGACG , report its switch fluorescence ratio on ATP.
OUT: 0.984

IN: Given GGTCGCGGAT , report its switch fluorescence ratio on ATP.
OUT: 1.01

IN: Given AGAACGTCTA , report its switch fluorescence ratio on ATP.
OUT: 1

IN: Given TCGATAGGGA , report its switch fluorescence ratio on ATP.
OUT: 1.01

IN: Given TCTTAGTTGT , report its switch fluorescence ratio on ATP.
OUT: 0.988

IN: Given TTAGACACAA , report its switch fluorescence ratio on ATP.
OUT: 1.01

IN: Given TTTTTTGCTA , report its switch fluorescence ratio on ATP.
OUT: 1.01

IN: Given GTTGCGGGGG , report its switch fluorescence ratio on ATP.
OUT: 0.994

IN: Given GCGGAGGGGC , report its switch fluorescence ratio on ATP.
OUT: 1.01

IN: Given AAATTGCGGC , report its switch fluorescence ratio on ATP.
OUT: 0.975

IN: Given TGGTTGGGAC , report its switch fluorescence ratio on ATP.
OUT: 0.995

IN: Given GATTTGAGGG , report its switch fluorescence ratio on ATP.
OUT: 0.973

IN: Given ATAGTAATCG , report its switch fluorescence ratio on ATP.
OUT: 0.988

IN: Given TCGCGGTGGC , report its switch fluorescence ratio on ATP.
OUT: 1

IN: Given TTCACGAAGA , report its switch fluorescence ratio on ATP.
OUT: 1

IN: Given CGAAATGTAA , report its switch fluorescence ratio on ATP.
OUT: 0.992

IN: Given TTTATCGAGC , report its switch fluorescence ratio on ATP.
OUT: 1.02

IN: Given GAATGGATGG , report its switch fluorescence ratio on ATP.
OUT: 1

IN: Given CGGGGTGTTT , report its switch fluorescence ratio on ATP.
OUT: 1.01

IN: Given GGATTTTTCA , report its switch fluorescence ratio on ATP.
OUT: 0.985

IN: Given CGTTGTAGGG , report its switch fluorescence ratio on ATP.
OUT: 0.989

IN: Given GGGTAAAGGG , report its switch fluorescence ratio on ATP.
OUT: 1

IN: Given CGGGGGTGTG , report its switch fluorescence ratio on ATP.
OUT: 0.993

###

# Test system: ATP;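 note: ATP exposure 15 min at 22 °C before imaging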
# run-description: switch fluorescence ratio, 500 uM ATP over buffer (Cy3 cluster intensity, sum of 5 cycles each) (fold (ratio)); higher = stronger signal-on switching upon ATP binding; sequences stand for … in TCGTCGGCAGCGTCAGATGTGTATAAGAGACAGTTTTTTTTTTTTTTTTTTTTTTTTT…TC
# assay-conditions: aptamer strand: ATP DNA aptamer (quencher-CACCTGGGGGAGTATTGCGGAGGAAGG + anchor), 100 nM annealed; ATP concentration: 500 uM
assay-readout: switch fluorescence ratio
Please state the value as a number alone, without comment.

IN: Given ATAATCTGGT , report its switch fluorescence ratio on ATP.
OUT: 0.997

IN: Given AAAATGGATT , report its switch fluorescence ratio on ATP.
OUT: 0.995

IN: Given TTTGGGAAGC , report its switch fluorescence ratio on ATP.
OUT: 1.02

IN: Given TTTAAAAAAC , report its switch fluorescence ratio on ATP.
OUT: 1

IN: Given GATGTGGGTA , report its switch fluorescence ratio on ATP.
OUT: 0.992

IN: Given TTAGGAGATG , report its switch fluorescence ratio on ATP.
OUT: 0.98

IN: Given AGTGGATTCT , report its switch fluorescence ratio on ATP.
OUT: 1

IN: Given GAAGAGCCTA , report its switch fluorescence ratio on ATP.
OUT: 0.986

IN: Given TGGGGGGGCT , report its switch fluorescence ratio on ATP.
OUT: 1.02

IN: Given TGTTGGGGCG , report its switch fluorescence ratio on ATP.
OUT: 1.02

IN: Given CGTATTGCGT , report its switch fluorescence ratio on ATP.
OUT: 1.01

IN: Given AAAGACGCGC , report its switch fluorescence ratio on ATP.
OUT: 0.998

IN: Given TCTTGGATCT , report its switch fluorescence ratio on ATP.
OUT: 0.987
